tested on: Salmonella typhimurium Ames mutagenicity, literature compiled; assay: DSSTox (CPDBAS) Carcinogenic Potency Database Salmonella Mutagenicity
The source made the active and inactive calls.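 How the source made its calls: active means chemicals rated mutagenic or weakly mutagenic in the Salmonella bacterial test by one literature review, or positive overall by another; inconclusive means no clear call, values can overlap the other calls; inactive means the rest.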
measured-parameter: outcome

compound: O=[N+]([O-])c1ccc2ncccc2c1
reported: active
--
compound: C=COC(C)=O
reported: inactive
--
compound: Nc1ccccc1C(=O)O
reported: inactive
--
compound: CCC(C)c1cc([N+](=O)[O-])cc([N+](=O)[O-])c1O (stereo not drawn)
reported: inactive
--
compound: COc1ccc(O)c(C(C)(C)C)c1
reported: inactive; active
--
compound: Cc1ccc(NC(N)=O)cc1
reported: inactive; active
--
compound: CCOC(=O)CC(SP(=S)(OC)OC)C(=O)OCC (stereo not drawn)
reported: inactive
--
compound: O=[N+]([O-])c1ccc(Oc2ccc(Cl)cc2Cl)cc1
reported: active
--
compound: CCN(Cc1cccc(S(=O)(=O)O)c1)c1ccc(C(=C2C=CC(=[N+](CC)Cc3cccc(S(=O)(=O)[O-])c3)C=C2)c2ccc(S(=O)(=O)O)cc2)cc1
reported: inactive; active
--
compound: ClCc1ccccn1
reported: active
--
compound: O=C(O)/C=C/c1ccc(O)c(O)c1
reported: inactive
--
compound: Nc1c(Cl)c(Cl)nc(C(=O)O)c1Cl
reported: inactive; active

* * *

tested on: Salmonella typhimurium Ames mutagenicity, literature compiled; test: DSSTox (CPDBAS) Carcinogenic Potency Database Salmonella Mutagenicity
The source made the active and inactive calls.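 How the source made its calls: active means chemicals rated mutagenic or weakly mutagenic in the Salmonella bacterial test by one literature review, or positive overall by another; inconclusive means no clear call, values can overlap the other calls; inactive means the rest.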
Possible outcomes: active, inactive

smiles: CCOP(=S)(OCC)Oc1ccc([N+](=O)[O-])cc1
class-assignment: inactive
//
smiles: CCC(Br)(CC)C(=O)NC(N)=O
class-assignment: inactive
//
smiles: c1ccc(Nc2ccc(Nc3ccccc3)cc2)cc1
class-assignment: active
//
smiles: CCN(CC)C(=S)S
class-assignment: inactive
//
smiles: O=c1c(O)c(-c2ccc(O)c(O)c2)oc2cc(O)cc(O)c12
class-assignment: active
//
smiles: C=C(Cl)Cl
class-assignment: active
//
smiles: CCCc1cc(=O)[nH]c(=S)[nH]1
class-assignment: inactive

* * *

tested on: Salmonella typhimurium Ames mutagenicity, literature compiled; assay: DSSTox (CPDBAS) Carcinogenic Potency Database Salmonella Mutagenicity
Activity calls are given as the source filed them.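 The calls were made as follows: active = chemicals rated mutagenic or weakly mutagenic in the Salmonella bacterial test by one literature review, or positive overall by another; inconclusive = no clear call, values can overlap the other calls; inactive = the rest.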
Possible outcomes: TRUE = active, FALSE = inactive

smiles: C[N+](C)(C)CCCl
class-assignment: FALSE
//
smiles: OC[C@@H](O)[C@@H](O)[C@H](O)[C@H](O)CO
class-assignment: FALSE
//
smiles: S=C1NCCN1
class-assignment: TRUE
//
smiles: C=CC(=O)c1ccc2c(c1)OCO2
class-assignment: FALSE
//
smiles: C[C@](N)(Cc1ccc(O)c(O)c1)C(=O)O
class-assignment: FALSE
//
smiles: COc1ccc(N)cc1
class-assignment: TRUE
//
smiles: Nc1ccc(-c2ccccc2)cc1
class-assignment: TRUE
//
smiles: CC1(C)S[C@@H]2[C@H](NC(=O)COc3ccccc3)C(=O)N2[C@H]1C(=O)O
class-assignment: FALSE

* * *

test system: Salmonella typhimurium Ames mutagenicity, literature compiled; test: DSSTox (CPDBAS) Carcinogenic Potency Database Salmonella Mutagenicity
Calls of active or inactive are those of the source.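 How the source made its calls: active means chemicals rated mutagenic or weakly mutagenic in the Salmonella bacterial test by one literature review, or positive overall by another; inconclusive means no clear call, values can overlap the other calls; inactive means the rest.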
Classes used: 1 (yes) = active, 0 (no) = inactive

smiles: O=C(O)c1ccc([N+](=O)[O-])cc1
class-assignment: 1 (yes)

smiles: Nc1c(Cl)cc(Cl)cc1Cl
class-assignment: 0 (no)

smiles: NC(=O)N(CC(=O)O)N=O
class-assignment: 0 (no)

smiles: C=CN1CCCC1=O
class-assignment: 0 (no)

* * *

test system: Salmonella typhimurium Ames mutagenicity, literature compiled; test: DSSTox (CPDBAS) Carcinogenic Potency Database Salmonella Mutagenicity
Calls of active or inactive are those of the source.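 The calls were made as follows: active = chemicals rated mutagenic or weakly mutagenic in the Salmonella bacterial test by one literature review, or positive overall by another; inconclusive = no clear call, values can overlap the other calls; inactive = the rest.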
Outcomes: T for active, F for inactive

compound: CCCC(Cl)CCC(Cl)CCC(Cl)CCC(Cl)CCC(Cl)CCC(Cl)CCC(C)Cl (centres undefined)
class-assignment: F

compound: Nc1cc(Cl)c(N)c(Cl)c1
class-assignment: T

compound: Oc1cccc(O)c1
class-assignment: F

compound: CN(C)CNc1nnc(/C=C/c2ccc([N+](=O)[O-])o2)o1
class-assignment: T

compound: NC1CCCCC1
class-assignment: F

compound: CCOc1ccccc1C(N)=O
class-assignment: F

compound: Nc1ccc([N+](=O)[O-])cc1N
class-assignment: T

compound: Cc1ccc2c(c1N)C(=O)c1ccccc1C2=O
class-assignment: T

compound: COP(=O)(OC)OC
class-assignment: T

compound: CCCN(CCC)S(=O)(=O)c1ccc(C(=O)O)cc1
class-assignment: F

compound: Oc1ccccc1
class-assignment: F

compound: COP(=O)(OC)C(O)C(Cl)(Cl)Cl (centres undefined)
class-assignment: T

compound: CN(C)c1ccc(C(=O)c2ccc(N(C)C)cc2)cc1
class-assignment: T

compound: CN(Cc1cnc2nc(N)nc(N)c2n1)c1ccc(C(=O)N[C@@H](CCC(=O)O)C(=O)O)cc1
class-assignment: F

* * *

test system: Salmonella typhimurium Ames mutagenicity, literature compiled; experiment: DSSTox (CPDBAS) Carcinogenic Potency Database Salmonella Mutagenicity
Active and inactive are the calls of the source.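 How the source made its calls: active means chemicals rated mutagenic or weakly mutagenic in the Salmonella bacterial test by one literature review, or positive overall by another; inconclusive means no clear call, values can overlap the other calls; inactive means the rest.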
measured-parameter: outcome

molecule: CC(C)(C)c1cc(O)ccc1O
reported: inactive

molecule: ClCc1cccnc1
reported: active; inactive

molecule: CCCN(CCC)c1c([N+](=O)[O-])cc(C(F)(F)F)cc1[N+](=O)[O-]
reported: active

molecule: COC(=O)C(c1ccccc1)C1CCCCN1 (configuration not stated)
reported: inactive

molecule: O=c1c(O)c(-c2ccc(O)cc2)oc2cc(O)cc(O)c12
reported: active

molecule: CCn1cc(C(=O)O)c(=O)c2ccc(C)nc21
reported: inactive

molecule: Cc1ccc2cc3c(ccc4ccccc43)c3c2c1CC3
reported: active

molecule: CC(=O)Nc1ccc(O)cc1
reported: inactive; active

molecule: O=C1O[C@H]([C@@H](O)CO)C(O)=C1O
reported: inactive

molecule: COC(=O)C1=CCCN(N=O)C1
reported: active

molecule: c1ccc(NNc2ccccc2)cc1
reported: active

molecule: O=C1c2ccccc2-c2ccc3c4c(ccc1c24)-c1ccccc1C3=O
reported: inactive; active

molecule: CCCCCCc1ccc(O)cc1O
reported: inactive; active

molecule: O[C@H]([C@H](O)[C@@H](O)CBr)[C@H](O)CBr
reported: active; inactive

molecule: Oc1ccc(O)cc1
reported: inactive

molecule: C=CCCl
reported: active; inactive

molecule: ClC(Cl)(Cl)c1ccccc1
reported: active

molecule: CN(C)C=O
reported: inactive

molecule: CCSCCC(N)C(=O)O (configuration not stated)
reported: inactive

molecule: O=C1NC(=O)C(c2ccccc2)(c2ccccc2)N1
reported: inactive

molecule: CC(=O)c1ccc(S(=O)(=O)NC(=O)NC2CCCCC2)cc1
reported: inactive

molecule: c1ccc2c(c1)ccc1cc3c(ccc4ccccc43)cc12
reported: active

molecule: COc1cc(/C=C/C(=O)CC(=O)/C=C/c2ccc(O)c(OC)c2)ccc1O
reported: inactive

molecule: Cc1cc(O)c2c(c1O)C(=O)C13C(=C2O)C(=O)C2C(O)C1C1C(O)C3C(=O)C3=C(O)c4c(O)cc(C)c(O)c4C(=O)C321 (configuration not stated)
reported: inactive; active

molecule: Nc1ccc([N+](=O)[O-])cc1O
reported: active

molecule: Cc1cccc(C)c1N
reported: active

molecule: CCCl
reported: active

molecule: C=C(C)C#N
reported: inactive; active

molecule: ClC(Cl)C(Cl)Cl
reported: inactive; active

molecule: Nc1ccc(N)c(Cl)c1
reported: active; inactive

molecule: O=C(O)c1[nH]n(-c2ccc(S(=O)(=O)O)cc2)c(=O)c1N=Nc1ccc(S(=O)(=O)O)cc1
reported: inactive; active

molecule: Nc1ccc(Oc2ccc(N)cc2)cc1
reported: active

molecule: C1N2CN3CN1CN(C2)C3
reported: active

molecule: CC(C)N(C(=O)SC/C(Cl)=C/Cl)C(C)C
reported: active

molecule: Cc1cc(N=Nc2ccccc2C)ccc1N
reported: active

molecule: Nc1nc(N)nc(N)n1
reported: inactive; active

molecule: ClC1C2(Cl)C3C4C5OC5C5C4C1(Cl)C(Cl)(C53)C2(Cl)Cl (configuration not stated)
reported: active

molecule: O=C1C(Cl)=C(Cl)C(=O)C(Cl)=C1Cl
reported: active

molecule: c1ccc2cc(Nc3ccc(Nc4ccc5ccccc5c4)cc3)ccc2c1
reported: active

molecule: C1OC1C1CO1 (configuration not stated)
reported: active

molecule: C=C(C)[C@H]1CC=C(C)CC1
reported: inactive; active

molecule: ClCc1ccccc1
reported: active

molecule: NS(=O)(=O)c1cc2c(cc1Cl)NCNS2(=O)=O
reported: inactive; active

molecule: NCCNc1cccc2ccccc12
reported: active

molecule: CCCNC(=O)NS(=O)(=O)c1ccc(Cl)cc1
reported: inactive; active

molecule: O=[N+]([O-])c1ccc(O)c([N+](=O)[O-])c1
reported: inactive

molecule: ClC(Cl)(Cl)Cl
reported: inactive; active

molecule: O=C1c2cccc(O)c2C(=O)c2c(O)cccc21
reported: active

molecule: O=[N+]([O-])c1ccc(Cl)cc1
reported: active

molecule: CC(=O)NCc1nc(-c2ccc([N+](=O)[O-])o2)no1
reported: active

molecule: C=CC(=O)NCO
reported: inactive

molecule: CC(=O)NNc1ccccc1
reported: active

molecule: CCCCCCCCCCCCCCCC(=O)OC/C=C(C)/C=C/C=C(C)/C=C/C1=C(C)CCCC1(C)C
reported: inactive; active

molecule: CC(COc1ccccc1)N(CCCl)Cc1ccccc1 (configuration not stated)
reported: active; inactive

molecule: Cc1ccc(Cl)cc1N
reported: inactive; active

molecule: O=[N+]([O-])c1ccc(-c2nc(N3CCOCC3)c3ccccc3n2)s1
reported: active

molecule: Cc1ccc(N=Nc2c(O)c(S(=O)(=O)O)cc3ccc(S(=O)(=O)O)cc23)c(C)c1
reported: active
